# experimental_protocol: Rat liver microsome stability assay (Biological Example 8a)
# condition_details: liver microsomes, pH 7.4
measurement_type: half-life at 1 μM

CCOc1cncc(C2=CC[C@H]3[C@@H]4CC[C@H]5COCCC[C@]5(C)[C@H]4CC[C@]23C)c1 [Compound 125] ... 1 to 10 min

Enquiry: What measured half-life at 1 μM goes with C[C@]12CC[C@H]3[C@@H](CC[C@H]4C[C@@H](O)CC[C@@]43C)C1=CC=C2n1ccnn1 [Compound 176] ?
Return: 1 to 10 min

Enquiry: What measured half-life at 1 μM goes with CN1C(=O)COC[C@@]2(C)C1CC[C@@H]1[C@@H]2CC[C@]2(C)C(c3cccnc3)=CC[C@@H]12 (stereo partly drawn) [Compound 98] ?
Return: 1 to 10 min

Enquiry: What measured half-life at 1 μM goes with Cc1cncc(C2=CC[C@H]3[C@@H]4CCC5=CC(=O)NCC[C@]5(C)[C@H]4CC[C@]23C)c1 [Compound 51] ?
Return: 10 to 60 min

Enquiry: What measured half-life at 1 μM goes with C[C@]12CCC(=O)OC[C@@H]1CC[C@@H]1[C@@H]2CC[C@]2(C)C(c3cccnc3)=CC[C@@H]12 [Compound 113] ?
Return: 10 to 60 min

Enquiry: What measured half-life at 1 μM goes with Cc1cn(C2=CC[C@H]3[C@@H]4CCC5=CC(=O)NCC[C@]5(C)[C@H]4CC[C@]23C)cn1 [Compound 154] ?
Return: 10 to 60 min

This collection of values is drawn from patent US20130252930A1.
